system: VDR homodimer (NR concentration 270 nM); assay: PBM binding z-score (relative to random genomic background probes); higher = stronger binding; sequences stand for … in GC…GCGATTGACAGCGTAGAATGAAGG
PBM binding z-score overview
MEASUREMENT TYPE: PBM binding z-score

SEQUENCE RECORD	RESULT
GGAACGAAGGCATTCGAGTTGATAGCATGGCGAT	-0.0499
CCGACTGGGGCAAGGTTGCCATAACGCACAGCCA	-0.526
TCTAGTTGGTCACGGTGGTCACACACGACGGGTA	-0.372
CCGACTGGGCCAAAAAGGTCATTGATGCCGATAA	2.14
AGTCAAAGTTCGTCTAGGTAACGTAAGATATGCT	2.49
TAGCCTAGGTCATTCAGGGGCCAGGATAGAAAGC	1.6
CAAACTAGGTCCCGAAAGGTCAAAGTCGAATGAC	2.66
ACTACCAGGCCAAGTTTGGGTCACTCAAACAAAG	0.598
CGAGCGAGGGCATGAGTTGATAGCAAATGCCGAT	1.46
CCTAATGGGCCACGAAAGGTCATTGATTCAGTGA	2.52
ATCTCTACGTAAAAGTTCAGTGAATCCCGAGGAT	1.5
GCTTACGGGTCAAAGGTTGTAGCATGAATAGAAT	0.93
TCAGACAGGTGAAGGTAACTCTGGTACGCAGTCG	0.154
ATCGAAATGTCGAAGGTGAGTATACCCACCCGAA	-0.0115
CGTCCATGGTCAATGCTAGGTCAGTGAAAGCATT	-0.0955
CCTACTGGGCCACGAAAGGTCATTCATTCAGTGA	2.83
GCTAGCAGGCCAGTTGGGTCACTCAATGACGGGC	-0.361
ATCGAAAGGTCGAAGGTGTGTATACCCACCCGAA	0.639
CTCGAAAGGTCGTGCTCAAGTGAGTATACCAAAC	1.15
ATATGTAGGTTAAGGGTTATTCAGGTTGGTTCGC	1.83
CCGACTGGGGCAAAGTTACCATAACGCACAGCCA	-0.275
CGTCCAAGGTCAAAGGTGAGTGAAGAGATGACGG	2.92
TTACCAAGGTGAACGTCGTTGATCCCTCTGTAGA	-0.626
CCTAGCAGGCCAATCTGGGTCACACAAGGCTTGA	0.17
CCTACTGGGCCAAAGTCATTGATCAGTCAAAGCA	-0.635
ACTGGTTGGTCAGCTGAGGTCACACACAATTCGG	4.2
GCTATTAGTAGAAAGGGCAACCGAATGATTCTCG	-0.301
ATCTCTAGGTAAGACTCAGTTCCGTGAAGAACGC	0.435
ACTATTAGTTGACTTAGGGCAACCGTTACGACGC	0.195
AGAATGAAGTTACCAAAGATCAGGGAAACGCTTG	-0.257
CCTTACGAGTCACTGACAGGTTATAGCATTTGGA	0.964
ACTACCAGGCCAAGGGTCACTCAAGATTAGTCCG	2.13
CCTCGGAGGACAACAGGCGGTCAGAGCTGCCAGA	-0.0839
ACAGACAGGTGAGTGAAGTTAACTCAGCTGGACG	-0.612
ATCTCTAGCTAACAAGTTCAGTGAAAGAGAGGAC	2.47
ACTTACGGGTCAACGAGGGTATAGCACGCGTATA	2.67
TAGCCTAGGTAATGCGGGCCAGTATAGTGTCGGC	-0.784
ACTAGCAGGCGAAGGGTCACTCAAGATTAGTCCG	0.989
TAGCCTAGGTCAGATCGGGCCAGTTTACGCTATA	-0.339
TCTTGTAGATCAAAGGTTAAGAAGGCCGAAGCCT	0.0638
TAGCCTAGGTCAGATCGGTCCAGTATACGCTATA	0.23
CGAACTAGGTCATCCAGGACAGAGAATACATTGA	1.64
ATCCAAAGGTCGAAGGTGAGTATACCCACCCGAA	0.849
GCGACTGGGGCAATGCAGGTTACCATAAGGTTGG	-0.0846
ATCTCTAGGTAAAGTTCAGTGATAGATCGATAGA	2.09
CCTAGTTGGTCAGGAGGTCACACCCCGGATATGA	2.96
CAAACTAGGTCAGGGTCAAAGTCGGTTTGTGCCA	4.18
CCTCCAAGGTCAATGCTAGGTCAGTGAAAGCATT	2.71
GCTTGTAGATCAAGGTTAAGATAGACTAAGCTAA	-0.108
CGTCCACGGTCAAGGTCAGTGAAAGAGACTCGAA	0.791
GCTAGTTGGTCAGTAAAAGGTCACACGCCGGTCG	1.85

Values compiled from the supplement of paper PMC6555819.
